Just for reference, patent US7795244B2 is where these values come from.

What solubility was measured for each of the following?
assay: Equilibrium solubility; format: physicochemical; details: aqueous buffer, thermodynamic from solid, 25 mM phosphate buffer (pH 5), ambient temperature / 25° C.
Answers are plain numbers, in µg/mL.

                                   compound  observed_result
0  C[C@@H](O)[C@H]1C(=O)N2C(C(=O)OCOC(=O)OC3CCC(C)(C)CC3)=C(S[C@H]3CC[S@@+]([O-])C3)S[C@H]12              136
1  CCOC(C)(C)C(=O)OCOC(=O)C1=C(S[C@H]2CC[S@@+]([O-])C2)S[C@@H]2[C@@H]([C@@H](C)O)C(=O)N12             2900
2  C[C@@H](O)[C@H]1C(=O)N2C(C(=O)OCOC(=O)C(C)(C)C)=C(S[C@H]3CC[S@@+]([O-])C3)S[C@H]12 [Compound B1, reference compound]              389

We next turn to a different compound, shown below.
What does the data say about its solubility? Entry: `CCC(CC)C(=O)OCOC(=O)C1=C(S[C@H]2CC[S@@+]([O-])C2)S[C@@H]2[C@@H]([C@@H](C)O)C(=O)N12`
1210

* * *

Could you please report measured half-life at 50 µM for the items listed next?
assay: Stability in the presence of porcine pancrelipase (PPE); type: in vitro ADME; conditions: pig, porcine pancrelipase (ku-zyme HP) in phosphate buffer, pH 7.4, ku-zyme Lot 1; 50 μM substrate, pH 7.4, 37° C.
Numbers only, in min.

Before answering, review these 8 worked examples.
molecule	measurement units	half-life at 50 µM
CCC(C)(C)C(=O)OCOC(=O)C1=C(S[C@H]2CC[S@@+]([O-])C2)S[C@@H]2[C@@H]([C@@H](C)O)C(=O)N12	min	11
CCC(CC)C(=O)OCOC(=O)C1=C(S[C@H]2CC[S@@+]([O-])C2)S[C@@H]2[C@@H]([C@@H](C)O)C(=O)N12	min	11.7
CCC(CC)(CC)C(=O)OCOC(=O)C1=C(S[C@H]2CC[S@@+]([O-])C2)S[C@@H]2[C@@H]([C@@H](C)O)C(=O)N12	min	21.1
CCCC(C)C(=O)OCOC(=O)C1=C(S[C@H]2CC[S@@+]([O-])C2)S[C@@H]2[C@@H]([C@@H](C)O)C(=O)N12 (some centres unmarked)	min	4.8
CC(C)CC(C)(C)C(=O)OCOC(=O)C1=C(S[C@H]2CC[S@@+]([O-])C2)S[C@@H]2[C@@H]([C@@H](C)O)C(=O)N12	min	10.5
CC(C)CC(CC(C)C)C(=O)OCOC(=O)C1=C(S[C@H]2CC[S@@+]([O-])C2)S[C@@H]2[C@@H]([C@@H](C)O)C(=O)N12	min	6.4
CCCC(C)(C)C(=O)OCOC(=O)C1=C(S[C@H]2CC[S@@+]([O-])C2)S[C@@H]2[C@@H]([C@@H](C)O)C(=O)N12	min	14.4
CC(C)C(=O)OCOC(=O)C1=C(S[C@H]2CC[S@@+]([O-])C2)S[C@@H]2[C@@H]([C@@H](C)O)C(=O)N12	min	4.7

Okay, here is my list. What is half-life at 50 µM for each of these?
1. C[C@@H](O)[C@H]1C(=O)N2C(C(=O)OCOC(=O)C(C)(C)C)=C(S[C@H]3CC[S@@+]([O-])C3)S[C@H]12 (racemic) [Compound B2, reference compound]
2. CCCC(CCC)C(=O)OCOC(=O)C1=C(S[C@H]2CC[S@@+]([O-])C2)S[C@@H]2[C@@H]([C@@H](C)O)C(=O)N12

1. 11.6
2. 8.3

Request the reported half-life at 50 µM associated with `CCOC(C)(C)C(=O)OCOC(=O)C1=C(S[C@H]2CC[S@@+]([O-])C2)S[C@@H]2[C@@H]([C@@H](C)O)C(=O)N12`
19.1

* * *

Could you please report measured half-life at 50 µM for the items listed next?
test: Stability in the presence of porcine pancrelipase (PPE); type: in vitro ADME; conditions: pig, porcine pancrelipase (ku-zyme HP) in phosphate buffer, pH 7.4, ku-zyme lot 2; 50 μM substrate, pH 7.4, 37° C.
Numbers only, in min.

// below: answered molecules
molecule	half-life at 50 µM (min)
CCC(CC)C(=O)OCOC(=O)C1=C(S[C@H]2CC[S@@+]([O-])C2)S[C@@H]2[C@@H]([C@@H](C)O)C(=O)N12	17.9
C[C@@H](O)[C@H]1C(=O)N2C(C(=O)OCOC(=O)OC3CCC(C)(C)CC3)=C(S[C@H]3CC[S@@+]([O-])C3)S[C@H]12	6.3
C[C@@H](O)[C@H]1C(=O)N2C(C(=O)OCOC(=O)C(C)(C)C)=C(S[C@H]3CC[S@@+]([O-])C3)S[C@H]12 [Compound B1, reference compound]	22.5

Moving on to the next molecule.
Field request: half-life at 50 µM | item: C[C@@H](O)[C@H]1C(=O)N2C(C(=O)OCOC(=O)C(C)(C)C)=C(S[C@H]3CC[S@@+]([O-])C3)S[C@H]12 (racemic) [Compound B2, reference compound]
19.6

* * *

What log10(Km) was measured for each of the following?
test: Stability in human intestinal juice (HIJ); conditions: pooled human intestinal juice (4 subjects), buffered, pH 7.4
Short version: log10 scale, Km, µM.

compound	log10(Km)
CCOC(C)(C)C(=O)OCOC(=O)C1=C(S[C@H]2CC[S@@+]([O-])C2)S[C@@H]2[C@@H]([C@@H](C)O)C(=O)N12	2.02

Could you tell me log10(Km) for each of these compounds? They are listed below.
1. CC(=O)OCOC(=O)C1=C(S[C@H]2CC[S@@+]([O-])C2)S[C@@H]2[C@@H]([C@@H](C)O)C(=O)N12
2. C[C@@H](O)[C@H]1C(=O)N2C(C(=O)OCOC(=O)C(C)(C)C)=C(S[C@H]3CC[S@@+]([O-])C3)S[C@H]12 (racemic) [Compound B2, reference compound]
3. C[C@@H](O)[C@H]1C(=O)N2C(C(=O)OCOC(=O)C(C)(C)C)=C(S[C@H]3CC[S@@+]([O-])C3)S[C@H]12 [Compound B1, reference compound]
4. CCC(CC)C(=O)OCOC(=O)C1=C(S[C@H]2CC[S@@+]([O-])C2)S[C@@H]2[C@@H]([C@@H](C)O)C(=O)N12
5. C[C@@H](O)[C@H]1C(=O)N2C(C(=O)OCOC(=O)OC3CCC(C)(C)CC3)=C(S[C@H]3CC[S@@+]([O-])C3)S[C@H]12

2.59
1.60
1.46
1.96
2.48

* * *

assay: Stability in the presence of porcine pancrelipase (PPE); format: in vitro ADME; settings: pig, porcine pancrelipase (ku-zyme HP) in phosphate buffer, pH 7.4, ku-zyme Lot 1; 50 μM substrate, pH 7.4, 37° C.
Lab note - cut at 6 min for half-life at 50 µM: YES if strictly below, NO if not.

                                   molecule  classification
0  C[C@@H](O)[C@H]1C(=O)N2C(C(=O)OCOC(=O)CC(C)(C)C)=C(S[C@H]3CC[S@@+]([O-])C3)S[C@H]12              NO
1  C[C@@H](O)[C@H]1C(=O)N2C(C(=O)OCOC(=O)C(C)(C)C(C)(C)C)=C(S[C@H]3CC[S@@+]([O-])C3)S[C@H]12              NO
2  CC(C)C(C(=O)OCOC(=O)C1=C(S[C@H]2CC[S@@+]([O-])C2)S[C@@H]2[C@@H]([C@@H](C)O)C(=O)N12)C(C)C              NO
3  CC(C)C(C)(C)C(=O)OCOC(=O)C1=C(S[C@H]2CC[S@@+]([O-])C2)S[C@@H]2[C@@H]([C@@H](C)O)C(=O)N12              NO
4  CCCCC(C)(C)C(=O)OCOC(=O)C1=C(S[C@H]2CC[S@@+]([O-])C2)S[C@@H]2[C@@H]([C@@H](C)O)C(=O)N12              NO
5  CCC(C(=O)OCOC(=O)C1=C(S[C@H]2CC[S@@+]([O-])C2)S[C@@H]2[C@@H]([C@@H](C)O)C(=O)N12)C(C)C (stereo partly shown)             YES

Lab note: confirm whether the reported half-life at 50 µM for this molecule is below 6 min, equality not counting. molecule: `C[C@@H](O)[C@H]1C(=O)N2C(C(=O)OCOC(=O)C(C(C)(C)C)C(C)(C)C)=C(S[C@H]3CC[S@@+]([O-])C3)S[C@H]12`
NO

Input `CCC(=O)OCOC(=O)C1=C(S[C@H]2CC[S@@+]([O-])C2)S[C@@H]2[C@@H]([C@@H](C)O)C(=O)N12` ; condition: half-life at 50 µM strictly below 6 min. Does it hold?
YES

Threshold test, half-life at 50 µM < 6 min: CCC(C)C(=O)OCOC(=O)C1=C(S[C@H]2CC[S@@+]([O-])C2)S[C@@H]2[C@@H]([C@@H](C)O)C(=O)N12 (stereo partly shown)
NO

For this molecule, is half-life at 50 µM lower than 6 min? `CC(C)CC(=O)OCOC(=O)C1=C(S[C@H]2CC[S@@+]([O-])C2)S[C@@H]2[C@@H]([C@@H](C)O)C(=O)N12`
NO

Strictly below 6 min: is that where half-life at 50 µM of `CCC(C)(CC)C(=O)OCOC(=O)C1=C(S[C@H]2CC[S@@+]([O-])C2)S[C@@H]2[C@@H]([C@@H](C)O)C(=O)N12` sits?
NO

Regarding `CC(=O)OCOC(=O)C1=C(S[C@H]2CC[S@@+]([O-])C2)S[C@@H]2[C@@H]([C@@H](C)O)C(=O)N12` , kindly confirm whether its half-life at 50 µM is beneath 6 min.
NO

Please determine if `C[C@@H](O)[C@H]1C(=O)N2C(C(=O)OCOC(=O)OC3CCC(C)(C)CC3)=C(S[C@H]3CC[S@@+]([O-])C3)S[C@H]12` is below 6 min in terms of half-life at 50 µM.
YES
